target: T1, Monkey 4-1BB extracellular region recombinant protein (his-tag) (monkey); assay: ELISA, coated monkey 4-1BB-his 200 ng/well; antibody 0.041 µg/ml
T1 construct: extracellular domain; also called Monkey4-1BB, his-tag
Please respond with reported absorbance at 450 nm for every item in the list.
Give the value as a plain number.

// absorbance at 450 nm lookup, binder = 137-7 VHH-hFc recombinant antibody (Fc fusion, VHH fragment inserted into vector pFclG with human IgG1 Fc tag, expressed in HEK293F; also called CD137-7; not shown: human IgG1 Fc tag of the eukaryotic expression vector pFclG) QVQLVESGGGLVQPGGSLRLSCAASGFTLDSYAIAWFRQAPGKEREGVSCITSSGGSTNYADSVKGRFTISRDGAKNTVYLQLNSLKPEDTAIYYCAAFHRATCVILGEYDYWGQGTQVTVSS , result: 0.794

// absorbance at 450 nm lookup, binder = 137-1 VHH-hFc recombinant antibody (Fc fusion, also called CD137-1; not shown: human IgG1 Fc tag of the eukaryotic expression vector pFclG) QVQLVESGGGLVQPGGSLRLSCVASGFVFSTVTMGWGRQVPGKEFEWVSGVSSEGITDYADSVKGRFTISRDNAKNTVYLEMNSLKSEDTAEYYCLIGGRWSFGTWGQGTQVTVSS , result: 0.971

// absorbance at 450 nm lookup, binder = 137-39 VHH-hFc recombinant antibody (Fc fusion, VHH fragment inserted into vector pFclG with human IgG1 Fc tag, expressed in HEK293F; Preparation had non-specific bands, purity about 30%; not shown: human IgG1 Fc tag of the eukaryotic expression vector pFclG) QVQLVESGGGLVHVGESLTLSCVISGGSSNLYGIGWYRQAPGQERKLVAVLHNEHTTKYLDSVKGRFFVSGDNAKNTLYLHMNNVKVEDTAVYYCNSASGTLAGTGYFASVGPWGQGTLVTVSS , result: 0.387
